System: U-2932
protocol-text: growth inhibition by drug plus 177Lu-lilotomab satetraxetan (1 - RLU/untreated control) (fraction); higher = stronger inhibition
recorded-conditions: 10 nM; time (day): 5; 177Lu-lilotomab satetraxetan 1 ug/ml
If the reported growth inhibition by drug plus 177Lu-lilotomab satetraxetan equals or exceeds 0.1, assign Y. If not, assign N.

Check if growth inhibition by drug plus 177Lu-lilotomab satetraxetan >= 0.1 (inclusive). Item: O=C(CCc1ccc(O)cc1)c1c(O)cc(O)cc1O [Phloretin (Dihydronaringenin)] N

Check if growth inhibition by drug plus 177Lu-lilotomab satetraxetan >= 0.1 (inclusive). Item: CC[C@]1(O)C[C@@H]2CN(CCc3c([nH]c4ccccc34)[C@@](C(=O)OC)(c3cc4c(cc3OC)N(C)[C@H]3[C@@](O)(C(=O)OC)[C@H](OC(C)=O)[C@]5(CC)C=CCN6CC[C@]43[C@@H]65)C2)C1 [Vinblastine] Y

Check if growth inhibition by drug plus 177Lu-lilotomab satetraxetan >= 0.1 (inclusive). Item: `O=C(Cc1ccc(-c2ccc(OCCN3CCOCC3)cc2)cn1)NCc1ccccc1` Y

Check if growth inhibition by drug plus 177Lu-lilotomab satetraxetan >= 0.1 (inclusive). Item: CCC(=O)N1CCN(c2ccc(-n3c(=O)ccc4cnc5ccc(-c6cnc7ccccc7c6)cc5c43)cc2C(F)(F)F)CC1 [Torin 1] Y

Check if growth inhibition by drug plus 177Lu-lilotomab satetraxetan >= 0.1 (inclusive). Item: O=C(O)CCCc1ccccc1 [4-Phenylbutyrate] Y

* * *

Tested on: RIVA
protocol-text: growth inhibition by drug plus 177Lu-lilotomab satetraxetan (1 - RLU/untreated control) (fraction); higher = stronger inhibition
recorded-conditions: 10 nM; time (day): 3; 177Lu-lilotomab satetraxetan 0.5 ug/ml
If the reported growth inhibition by drug plus 177Lu-lilotomab satetraxetan equals or exceeds 0.4, assign met. If not, assign not met.

Check if growth inhibition by drug plus 177Lu-lilotomab satetraxetan >= 0.4 (inclusive). Item: `C[C@H](NC(=O)Cc1cc(F)cc(F)c1)C(=O)N[C@H](C(=O)OC(C)(C)C)c1ccccc1` met

Check if growth inhibition by drug plus 177Lu-lilotomab satetraxetan >= 0.4 (inclusive). Item: CN(Cc1cnc2nc(N)nc(N)c2n1)c1ccc(C(=O)N[C@@H](CCC(=O)O)C(=O)O)cc1 [Abitrexate (Methotrexate)] not met

Check if growth inhibition by drug plus 177Lu-lilotomab satetraxetan >= 0.4 (inclusive). Item: `COc1cc2c(cc1OC)CN(CCc1ccc(NC(=O)c3cccc4c(=O)c5cccc(OC)c5[nH]c34)cc1)CC2` not met

Check if growth inhibition by drug plus 177Lu-lilotomab satetraxetan >= 0.4 (inclusive). Item: `Cc1oc(S(=O)(=O)N2CCCCC2)cc1NC(=O)Nc1ccccc1` met

* * *

Test system: RIVA
protocol-text: growth inhibition by drug plus 177Lu-lilotomab satetraxetan (1 - RLU/untreated control) (fraction); higher = stronger inhibition
recorded-conditions: 10 nM; time (day): 3; 177Lu-lilotomab satetraxetan 0.5 ug/ml
If the reported growth inhibition by drug plus 177Lu-lilotomab satetraxetan equals or exceeds 0.5, assign satisfied. If not, assign not satisfied.

Example cases with answers are listed next.
CC(C=CC(=O)NO)=CC(C)C(=O)c1ccc(N(C)C)cc1 (configuration not stated): not satisfied
CC(C)C[C@H](NC(=O)CNC(=O)c1cc(Cl)ccc1Cl)B1OC(=O)C(CC(=O)O)(CC(=O)O)O1: satisfied
Cc1cc(Nc2cc(N3CCN(C)CC3)nc(Sc3ccc(NC(=O)C4CC4)cc3)n2)n[nH]1: satisfied
CNC(=O)[C@@H](NC(=O)[C@H](CC(C)C)[C@H](O)C(=O)NO)C(C)(C)C: not satisfied
C=CCn1c(=O)c2cnc(Nc3ccc(N4CCN(C)CC4)cc3)nc2n1-c1cccc(C(C)(C)O)n1: not satisfied
CCOc1ccc(Cc2cc([C@@H]3O[C@H](CO)[C@@H](O)[C@H](O)[C@H]3O)ccc2Cl)cc1: satisfied
CS(=O)(=O)c1ccc(C(=O)Nc2ccc(Cl)c(-c3ccccn3)c2)c(Cl)c1: satisfied
CC(C)c1onc(-c2c(Cl)cccc2Cl)c1COc1ccc(/C=C/c2cccc(C(=O)O)c2)c(Cl)c1: not satisfied
O=c1c(O)c(-c2ccc(O)c(O)c2)oc2cc(O)cc(O)c12 [Quercetin (Sophoretin)]: satisfied
CCc1ccc(CCOc2ccc(CC3SC(=O)NC3=O)cc2)nc1 (configuration not stated): satisfied

Check if growth inhibition by drug plus 177Lu-lilotomab satetraxetan >= 0.5 (inclusive). Item: CCC(C)n1ncn(-c2ccc(N3CCN(c4ccc(OCC5COC(Cn6cncn6)(c6ccc(Cl)cc6Cl)O5)cc4)CC3)cc2)c1=O (configuration not stated) [Itraconazole (Sporanox)] satisfied

Check if growth inhibition by drug plus 177Lu-lilotomab satetraxetan >= 0.5 (inclusive). Item: CC(=O)O[C@]1(C(C)=O)CC[C@H]2[C@@H]3C=C(C)C4=CC(=O)CC[C@]4(C)[C@H]3CC[C@@]21C [Megestrol Acetate] not satisfied

Check if growth inhibition by drug plus 177Lu-lilotomab satetraxetan >= 0.5 (inclusive). Item: `CN(C)CCCCSC(=N)N` not satisfied

* * *

For each entry below, report its growth inhibition by drug plus 177Lu-lilotomab satetraxetan value.
Tested on: RIVA
protocol-text: growth inhibition by drug plus 177Lu-lilotomab satetraxetan (1 - RLU/untreated control) (fraction); higher = stronger inhibition
recorded-conditions: 100 nM; time (day): 4; 177Lu-lilotomab satetraxetan 0.5 ug/ml
One number for each entry.

Past entries and their recorded results:
CC(C)(C#N)c1cc(Cn2cncn2)cc(C(C)(C)C#N)c1: 0.506
COc1ccc(S(=O)(=O)Nc2cccnc2Nc2ccc(O)cc2)cc1: 0.502
N#Cc1c(O)c2c(-c3ccc(-c4ccccc4O)cc3)csc2[nH]c1=O: 0.488

Enter reported growth inhibition by drug plus 177Lu-lilotomab satetraxetan observed with RIVA for CC1=C(/C=C/C(C)=C/C=C/C(C)=C/C(=O)Nc2ccc(O)cc2)C(C)(C)CCC1 [Fenretinide] 0.504

* * *

For each entry below, report its growth inhibition by drug plus 177Lu-lilotomab satetraxetan value.
System: RIVA
protocol-text: growth inhibition by drug plus 177Lu-lilotomab satetraxetan (1 - RLU/untreated control) (fraction); higher = stronger inhibition
recorded-conditions: 10 nM; time (day): 4; 177Lu-lilotomab satetraxetan 0.5 ug/ml
Where a name gives a salt, the structure may show the parent alone.
One number for each entry.

Please state, for each entry, its recorded growth inhibition by drug plus 177Lu-lilotomab satetraxetan.
1. CCN1CCN(Cc2ccc(-c3cc4c(N[C@H](C)c5ccccc5)ncnc4[nH]3)cc2)CC1
2. CNCc1ccc(-c2[nH]c3cc(F)cc4c3c2CCNC4=O)cc1
3. CC(NC(=O)c1ccccc1/N=C/c1c(O)ccc2ccccc12)c1ccccc1 (centres undefined) [Sirtinol]

0.538
0.514
0.472

Please state, for each entry, its recorded growth inhibition by drug plus 177Lu-lilotomab satetraxetan.
1. CCN(CC)C(=S)SSC(=S)N(CC)CC [Disulfiram (Antabuse)]
2. CC(C)CC(=O)Nc1n[nH]c2c1CN(C(=O)C1CCN(C)CC1)C2(C)C
3. CCn1c(-c2nonc2N)nc2c(C#CC(C)(C)O)ncc(OC[C@H]3CCCNC3)c21

1: 0.529; 2: 0.515; 3: 0.464

Please state, for each entry, its recorded growth inhibition by drug plus 177Lu-lilotomab satetraxetan.
1. O=C1CN2Cc3c(ccc(Cl)c3Cl)N=C2N1 [Anagrelide]
2. COc1cc2ncnc(Nc3cccc(Br)c3)c2cc1OC
3. COC1=CC(c2cc3ccccc3[nH]2)=N/C1=C\c1[nH]c(C)cc1C [Obatoclax mesylate (GX15-070)]
4. Nc1ccccc1NC(=O)c1ccc(CNC(=O)OCc2cccnc2)cc1 [Entinostat (MS-275, SNDX-275)]
5. CO[C@H]1C[C@@H]2CC[C@@H](C)[C@@](O)(O2)C(=O)C(=O)N2CCCC[C@H]2C(=O)O[C@H]([C@H](C)C[C@@H]2CC[C@@H](OC(=O)C(C)(CO)CO)[C@H](OC)C2)CC(=O)[C@H](C)/C=C(\C)[C@@H](O)[C@@H](OC)C(=O)[C@H](C)C[C@H](C)/C=C/C=C/C=C/1C [Temsirolimus (Torisel)]
6. Cc1c(C(=O)Nc2ccc(N3C[C@@H](C)O[C@@H](C)C3)nc2)cccc1-c1ccc(OC(F)(F)F)cc1 [LDE225 (NVP-LDE225, Erismodegib)]
7. Cc1ccc([N+](=O)[O-])cc1S(=O)(=O)N(C)/N=C/c1cnc2ccc(Br)cn12
8. O=C(NCCS(=O)(=O)c1ccc(C(F)(F)F)cn1)c1ccc(Cl)cc1

1. 0.616
2. 0.458
3. 0.58
4. 0.568
5. 0.865
6. 0.504
7. 0.726
8. 0.553

* * *

System: U-2932
protocol-text: growth inhibition by drug plus 177Lu-lilotomab satetraxetan (1 - RLU/untreated control) (fraction); higher = stronger inhibition
recorded-conditions: 10 nM; time (day): 6; 177Lu-lilotomab satetraxetan 1 ug/ml
observation-type: growth inhibition by drug plus 177Lu-lilotomab satetraxetan
Give bare numbers.

Past entries and their recorded results:
O=c1oc2c(O)c(O)cc3c(=O)oc4c(O)c(O)cc1c4c23: 0.137
COc1cc(Nc2ncc(F)c(Nc3ccc4c(n3)NC(=O)C(C)(C)O4)n2)cc(OC)c1OC [R406(free base)]: 0.0813
CCN(CC)C(=S)SSC(=S)N(CC)CC: 0.0837
CCN1CCN(Cc2ccc(-c3cc4c(N[C@H](C)c5ccccc5)ncnc4[nH]3)cc2)CC1: 0.0829
CN(Cc1cnc2nc(N)nc(N)c2n1)c1ccc(C(=O)N[C@@H](CCC(=O)O)C(=O)O)cc1 [Abitrexate (Methotrexate)]: 0.0372

Next up:
I would be grateful if you could share the reported growth inhibition by drug plus 177Lu-lilotomab satetraxetan for `COc1cc2c(cc1OC)CN(CCc1ccc(NC(=O)c3cccc4c(=O)c5cccc(OC)c5[nH]c34)cc1)CC2` . 0.107

Data origin, for the record: the supplement of paper PMC6897291
